Collected pest or weed control at 250 g/ha values appear next to each entry.
System: Sorghum vulgare Pers. (SORVU)
ASSAY COMMENT: Test 2 glasshouse assay (IF50 formulation, X-77), pre-emergence herbicidal activity
Assay type: in vivo
MEASUREMENT CONTEXT: Sorghum bicolor, 480 h, 250 g/ha, 20DAA, read-out: Percentage phytotoxicity SORVU

COMPOUND	UNITS SYMBOL	pest or weed control at 250 g/ha
C#CCC1CC(=O)C(c2c(C)cc(-c3ncc(Cl)cc3F)cc2C)C1=O (stereo not drawn)	%	80
C#CCC1CC(=O)C(c2c(Cl)cc(-c3ccc(Cl)cn3)cc2OC)C1=O (stereo not drawn)	%	100
C#CCC1CC(=O)C(c2c(Cl)cc(-c3ccc(F)c(F)c3)cc2OC)C1=O (stereo not drawn)	%	100
C#CCC1CC(=O)C(c2c(C)cc(C)cc2C)C1=O (stereo not drawn)	%	70
C#CCC1CC(=O)C(c2c(F)cc(-c3ccc(Cl)cn3)cc2Cl)C1=O (stereo not drawn)	%	80
C#CCC1CC(=O)C(c2cc(-c3ccc(Cl)cc3Cl)ccc2C)C1=O (stereo not drawn)	%	30
C#CCC1CC(=O)C(c2c(F)cc(-c3ccc(Cl)cc3)cc2OC)C1=O (stereo not drawn)	%	90
C#CCC1CC(=O)C(c2c(Cl)cc(-c3ccc(F)cc3F)cc2OC)C1=O (stereo not drawn)	%	90
C#CCC1CC(=O)C(c2c(CC)cc(C)cc2CC)C1=O (stereo not drawn)	%	90

---

System: Alopecurus myosuroides (ALOMY)
ASSAY COMMENT: Test 2 glasshouse assay (IF50 formulation, X-77), post-emergence herbicidal activity
Format: in vivo
MEASUREMENT CONTEXT: 360 h, application rate 250 g/ha, 15 DAA, visual score, read-out: Post-emergence herbicidal activity (percentage phytotoxicity) ALOMY
MEASURED QUANTITY: pest or weed control at 250 g/ha (%)

MOLECULE	RECORDED RESULT
C#CCC1CC(=O)C(c2cc(-c3ncc(Cl)cn3)ccc2C)C1=O (centres unmarked)	40
C#CCC1CC(=O)C(c2c(C)cc(-c3ccc(Cl)cn3)cc2C)C1=O (centres unmarked)	100
C#CCC1CC(=O)C(c2cc(-c3ccc(Cl)cc3Cl)ccc2C)C1=O (centres unmarked)	40
C#CCC1CC(=O)C(c2c(Cl)cc(-c3ccc(F)cc3)cc2OC)C1=O (centres unmarked)	100
C#CCC1CC(=O)C(c2c(Cl)cc(-c3ccc(Cl)cc3)cc2OC)C1=O (centres unmarked)	70

---

Collected pest or weed control at 250 g/ha values appear next to each entry.
System: Digitaria sanguinalis (DIGSA)
ASSAY COMMENT: Test 2 glasshouse assay (IF50 formulation, X-77), post-emergence herbicidal activity
Format: in vivo
MEASUREMENT CONTEXT: 360 h, application rate 250 g/ha, 15 DAA, visual score, read-out: Post-emergence herbicidal activity (percentage phytotoxicity) DIGSA
MEASURED QUANTITY: pest or weed control at 250 g/ha (%)

COMPOUND	RECORDED RESULT
C#CCC1CC(=O)C(c2c(F)cc(-c3ccc(Cl)cc3)cc2Cl)C1=O (centres unmarked)	100
C#CCC1CC(=O)C(c2c(Cl)cc(-c3ccc(Cl)cc3)cc2OC)C1=O (centres unmarked)	100
C#CCC1CC(=O)C(c2c(Cl)cc(-c3ccc(F)cc3)cc2OC)C1=O (centres unmarked)	100
C#CCC1CC(=O)C(c2c(Cl)cc(-c3ccc(Cl)cn3)cc2OC)C1=O (centres unmarked)	100
C#CCC1CC(=O)C(c2cc(-c3ncc(Cl)cc3F)ccc2C)C1=O (centres unmarked)	50
